system under test: Glycogen synthase kinase-3 alpha (Homo sapiens) (UniProt P49840)
Sequence (P49840 whole entry, looked up): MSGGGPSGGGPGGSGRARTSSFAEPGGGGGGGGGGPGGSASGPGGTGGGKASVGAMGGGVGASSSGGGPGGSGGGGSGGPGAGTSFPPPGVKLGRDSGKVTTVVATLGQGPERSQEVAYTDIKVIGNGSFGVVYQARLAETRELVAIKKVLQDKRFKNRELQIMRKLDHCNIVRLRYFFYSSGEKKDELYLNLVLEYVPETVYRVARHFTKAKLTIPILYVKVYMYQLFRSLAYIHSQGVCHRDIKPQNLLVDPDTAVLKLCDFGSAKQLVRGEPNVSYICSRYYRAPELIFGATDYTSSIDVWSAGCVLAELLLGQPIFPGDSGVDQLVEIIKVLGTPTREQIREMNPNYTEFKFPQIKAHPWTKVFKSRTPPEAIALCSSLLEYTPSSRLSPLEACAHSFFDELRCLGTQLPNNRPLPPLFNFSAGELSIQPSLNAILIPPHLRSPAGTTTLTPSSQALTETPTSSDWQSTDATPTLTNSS
method summary: concentration-response blocking of human GSK3A – biochemical, luminescence, cell-free homogeneous, retest, dose response (AID 463203)
protocol conditions: GSK-3 alpha enzyme, ADP-Glo luminescence, 60 min
Activity calls are given as the source filed them.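 How the source made its calls: active means more than half of replicate measurements showing over 20% loss of kinase signal relative to plate controls; inconclusive means some but at most half of replicates over 20% loss; inactive means no replicate over 20% signal loss.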
Pick one: TRUE for active, FALSE for inactive

[
  {
    "compound": "Nc1nonc1-n1nnc(C(=O)N/N=C/c2cccnc2)c1-c1cccs1",
    "group label": "TRUE"
  }
]

Task item: Called result for CCOc1cc2c(C#N)c(N3CCCC3)nc(N)c2c(N)n1
Reply: FALSE

Task item: Please share the test call associated with CCOC(=O)c1cc(C)[nH]c1C .
Reply: FALSE

Task item: Called result for C=CCn1c(O)c(/C(C)=N/N2CCCCCC2)c(=O)[nH]c1=O
Reply: TRUE

Task item: Identify the outcome logged in this assay for the compound shown: CCCCc1ccc(NC(=O)N[C@H](C(=O)O)C(C)C)cc1
Reply: FALSE

Task item: Give the logged outcome of this assay for the following compound: Cc1ccc(-c2cn3cccnc3n2)cc1NC(=O)c1ccc(Br)o1
Reply: FALSE

Task item: // return assay outcome for N#C/C(=N\Nc1cccc(F)c1)C(=O)C1CC1
Reply: FALSE

Task item: // outcome(item) with item = O=C1Nc2ccccc2/C1=C/c1cnc(-c2ccccc2)[nH]1
Reply: FALSE

Task item: Outcome logged for CCOc1cc(-c2nc3c(C)cccn3c2NCC2CCCO2)ccc1O (stereo unspecified) in this assay:
Reply: FALSE

Task item: Assay outcome for CC1CCc2c(sc(NC(=O)CCCn3cnc([N+](=O)[O-])n3)c2C(N)=O)C1 (stereo unspecified) : what was it?
Reply: FALSE

Task item: GET /call?item= CCOc1ccccc1C1N(c2ccc(OC)cc2)C(=O)C2CCCN21 (stereo unspecified) returns the recorded outcome of this test.
Reply: FALSE
